tested on: EKVX NSCLC; experiment: NCI tumour cell line growth inhibition, 384-well format; in the data active = GI50 below about 0.43 µM; inactive = the rest
Labels: Yes for active, No for inactive

SMILES_RECORD | TARGET_OR_TEST_SYSTEM | CLASS
COc1ccc(Br)cc1NC(=O)Nc1cccc2c1ccn2Cc1ccnc(N)c1 | EKVX NSCLC | No
Cc1c(CN2CCN(C(=O)[C@H](C)O)CC2)sc2c(N3CCOCC3)nc(-c3cnc(N)nc3)nc12 | EKVX NSCLC | Yes
Cn1ncc(Cl)c1-c1cc(C(=O)N[C@H](CN)Cc2cccc(F)c2)sc1Cl | EKVX NSCLC | No
Cc1c(Cn2c(C)nc3c(C(=O)O)cc(N4CCOCC4)cc32)cccc1C(F)(F)F | EKVX NSCLC | No
